- Tested on: EKVX NSCLC
- TEST DESCRIPTION: NCI tumour cell line growth inhibition, 48 h; in the data active = GI50 below about 0.43 µM; inactive = the rest
Outcome codes: YES for active, NO for inactive

{"columns": ["MOLECULE", "CLASSIFICATION"],
 "data": [
  ["COc1cc(/C=C/C(=O)c2c(C)nc3ccccc3c2C)ccc1OCCCN1CCN(C(=O)c2ccco2)CC1", "NO"],
  ["FC(F)(F)c1cc(Nc2ccc3cc(OCCCN4CCOCC4)ccc3n2)ccc1Cl", "NO"],
  ["C=CCc1c(O)c(C(=O)/C=C/c2ccccc2)c(OC)c2ccoc12", "NO"],
  ["CN(C)CCNC(=O)NC[C@H]1CC[C@@H]2[C@H](O1)c1cc(C(F)(F)F)ccc1N[C@H]2c1ccccc1", "NO"],
  ["C[C@@H](Oc1cc(-n2cnc3ccc(OC[C@@H](O)CO)cc32)sc1C(N)=O)c1ccccc1Cl", "NO"],
  ["Cc1ccc(S(=O)(=O)N2CCc3ccc(O)c4c3C2Cc2ccc3c(c2-4)OCO3)cc1 (centres undefined)", "NO"],
  ["COc1cccc2c1C(=O)c1c(O)c3c(c(O)c1C2=O)C[C@@](O)(C(=O)CO)CC3OC1CC(NCCCC(OC(C)=O)OC(C)=O)C(O)C(C)O1 (some centres undefined)", "YES"],
  ["CN1CCN(Cc2cc(NC(=O)c3cccc(C#Cc4cccc5[nH]nc(N)c45)c3)cc(C(F)(F)F)c2)CC1", "NO"],
  ["C=C1C(=O)O[C@H]2[C@H]1CC/C(COC(=O)NCCCCCCCCNC(=O)OC/C1=C/CC[C@@]3(C)O[C@H]3[C@H]3OC(=O)C(=C)[C@@H]3CC1)=C\\CC[C@@]1(C)O[C@@H]21", "NO"]
]}
